These compounds were tested on UniProt Q9Y5Y4; pKi is the recorded read-out.
Sequence (Q9Y5Y4 whole entry): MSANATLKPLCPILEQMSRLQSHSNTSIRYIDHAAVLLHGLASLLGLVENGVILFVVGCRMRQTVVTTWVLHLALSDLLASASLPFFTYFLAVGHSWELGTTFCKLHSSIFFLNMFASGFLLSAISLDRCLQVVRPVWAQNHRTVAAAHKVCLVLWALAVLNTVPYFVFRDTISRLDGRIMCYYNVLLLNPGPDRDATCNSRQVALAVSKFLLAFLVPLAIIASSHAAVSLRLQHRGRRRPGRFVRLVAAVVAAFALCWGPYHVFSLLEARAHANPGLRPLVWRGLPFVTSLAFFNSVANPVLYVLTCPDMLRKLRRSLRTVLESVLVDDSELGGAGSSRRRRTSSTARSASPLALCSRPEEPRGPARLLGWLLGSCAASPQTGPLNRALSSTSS
pKi: −log10 of the molar value.

Recorded results for 6 compounds are shown here.
>>> print(df.to_string())
                                   compound        result
0  CC(C)(C)OC(=O)N1CCC(c2cnnn2C2CCc3c(CC(=O)O)c4ccccc4n3C2)CC1 (stereo not shown)        < 7.00
1  O=C(O)Cc1c2n(c3c(F)cccc13)CC(n1nncc1Cc1ccc(F)cc1F)CC2 (single isomer, unassigned)        ≥ 8.30
2  Cc1nnn(C2CCc3c(CC(=O)O)c4cccc(F)c4n3C2)c1Cc1ccc(F)cc1 (single isomer, unassigned)  7.30 to 8.00
3  O=C(O)Cc1c2n(c3ccccc13)CC(n1nncc1C1(c3ccccc3)CCCC1)CC2 (single isomer, unassigned) [Example 6.1]        ≥ 8.30
4  CC(O)(c1ccc(F)cc1)c1cnnn1C1CCc2c(CC(=O)O)c3cccc(F)c3n2C1 (single isomer, unassigned)        < 7.00
5  CC(O)(c1ccc(F)cc1)c1cnnn1C1CCc2c(CC(=O)O)c3ccccc3n2C1 (single isomer, unassigned) [Example 5.2]        < 7.00

Query compound follows.
State its pKi on UniProt Q9Y5Y4: CC(C)C(O)c1cn(C2CCc3c(CC(=O)O)c4ccccc4n3C2)nn1 (stereo not shown)
< 7.00

Where do the numbers come from? From patent US9023864B2.
